- ASSAY_SYSTEM: human DGKζ (Homo sapiens, UniProt Q13574)
- Construct: TVMV protease cleavage site (C); Hexa-His (C); made in house; host or cells: Sf9 insect cells (baculovirus, Bac-to-Bac)
- Sequence (Q13574 with tags, fused parts or gaps isoform Q13574-4): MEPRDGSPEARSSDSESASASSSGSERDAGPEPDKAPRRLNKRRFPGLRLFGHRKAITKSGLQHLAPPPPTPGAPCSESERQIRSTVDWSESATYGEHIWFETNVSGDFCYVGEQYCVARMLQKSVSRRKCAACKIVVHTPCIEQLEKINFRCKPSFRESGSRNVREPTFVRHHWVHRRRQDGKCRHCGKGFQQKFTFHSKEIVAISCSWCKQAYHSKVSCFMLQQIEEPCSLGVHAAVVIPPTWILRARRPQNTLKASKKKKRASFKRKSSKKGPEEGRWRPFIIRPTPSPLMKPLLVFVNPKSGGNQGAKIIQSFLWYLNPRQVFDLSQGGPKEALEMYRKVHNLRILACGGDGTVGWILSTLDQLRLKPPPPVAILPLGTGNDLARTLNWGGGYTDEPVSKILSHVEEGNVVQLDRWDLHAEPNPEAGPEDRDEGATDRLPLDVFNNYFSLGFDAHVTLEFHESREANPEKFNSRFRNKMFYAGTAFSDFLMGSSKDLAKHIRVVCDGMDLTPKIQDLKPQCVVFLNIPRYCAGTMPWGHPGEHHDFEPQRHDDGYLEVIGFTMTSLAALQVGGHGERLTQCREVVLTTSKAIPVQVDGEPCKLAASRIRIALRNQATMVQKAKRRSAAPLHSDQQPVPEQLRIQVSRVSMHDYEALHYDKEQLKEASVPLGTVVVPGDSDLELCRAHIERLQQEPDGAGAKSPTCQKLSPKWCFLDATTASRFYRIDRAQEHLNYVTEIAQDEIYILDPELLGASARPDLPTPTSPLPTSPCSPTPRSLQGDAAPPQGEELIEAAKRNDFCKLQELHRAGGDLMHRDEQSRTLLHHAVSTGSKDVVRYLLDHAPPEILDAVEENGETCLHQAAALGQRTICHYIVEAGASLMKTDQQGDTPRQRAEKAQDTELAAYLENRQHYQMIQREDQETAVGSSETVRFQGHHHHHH
- ASSAY_COMMENT: DGKζ LIPGLO assay (extruded liposome substrate), in vitro DGK inhibition
- Assay type: biochemical
- MEASUREMENT_SETUP: liposome (LIPGLO) assay; read-out: DGKz LIPGLO IC50
pIC50: −log10 of the molar value.
READOUT_TYPE: pIC50

(I) COC[C@@H]1CN(c2cc(=O)n(C)c3ccc(C#N)nc23)[C@@H](C)CN1C(c1ccc(F)cc1)c1nc(C2CC2)no1 (stereo partly drawn) [Example 1393]
(II) CC[C@@H]1CN(c2cc(=O)n(C)c3ccc(C#N)nc23)[C@@H](C)CN1C(c1ccc(F)cc1)c1nc(C2CC2)cs1 (single isomer, unassigned) [Example 1338]
(III) COc1ccc(C(C)N2C[C@H](C)N(c3cc(=O)n(C)c4ccc(C#N)nc34)C[C@H]2C)cc1OCCN1CCOCC1 (stereo partly drawn) [Example 1305]
Could you put the items above in increasing order of their pIC50? Form entry: labels listed in requested order.
III, II, I
(III: 5.12, II: 7.54, I: 7.80)

* * *

- ASSAY_SYSTEM: human DGKζ (Homo sapiens)
- Construct: TVMV protease cleavage site (C); Hexa-His (C); made in house; host or cells: Sf9 insect cells (baculovirus, Bac-to-Bac)
- ASSAY_COMMENT: DGKζ LIPGLO assay (extruded liposome substrate), in vitro DGK inhibition
- Assay type: biochemical
- MEASUREMENT_SETUP: liposome (LIPGLO) assay; read-out: DGKz LIPGLO IC50
pIC50: −log10 of the molar value.
READOUT_TYPE: pIC50

(I) C[C@@H]1CN(c2cc(=O)n(C)c3ccc(C#N)nc23)CCN1C(c1ccc(F)cc1)c1ccc(F)cc1
(II) CC[C@@H]1CN(c2cc(=O)n(C)c3ccc(C#N)nc23)[C@@H](C)CN1C(c1ccc(C)cc1)c1ccc(C)cc1
(III) C[C@@H]1CN(c2cc(=O)n(C)c3ccc(C#N)nc23)[C@@H](C)CN1C(c1ccc(F)cc1)c1ccccn1 (single isomer, unassigned) [Example 197]
(IV) CC(c1ccc(C2CC2)cc1)N1C[C@H](C)N(c2cc(=O)n(C)c3ccc(C#N)nc23)C[C@H]1C (single isomer, unassigned) [Example 1215]
(V) CC[C@@H]1CN(c2cc(=O)n(C)c3ccc(C#N)nc23)[C@@H](C)CN1Cc1ccc(F)cc1Cl
Arrange the 5 entries by pIC50 so the values rise. Response field: labels, in requested order.
III, I, IV, II, V
(III: 5.43, I: 5.68, IV: 6.17, II: 6.52, V: 6.96)

* * *

- ASSAY_SYSTEM: human DGKα (Homo sapiens)
- Construct: TVMV protease cleavage site (C); Hexa-His (C); made in house; host or cells: Sf9 insect cells (baculovirus, Bac-to-Bac)
- ASSAY_COMMENT: DGKα LIPGLO assay (extruded liposome substrate), in vitro DGK inhibition
- Type: biochemical
- MEASUREMENT_SETUP: liposome (LIPGLO) assay; read-out: DGKa LIPGLO IC50
READOUT_TYPE: IC50 (nM)

The examples below pair each entry with its known result.
Fill blank: measured IC50 of the molecule CC(c1ccc(F)c(Cl)c1)N1C[C@H](C)N(c2cc(=O)n(C)c3ccc(C#N)nc23)C[C@H]1C (single isomer, unassigned) [Example 1257] is ____.
7900

Look up IC50 for this molecule: C[C@@H]1CN(c2cc(=O)n(C)c3ccc(C#N)nc23)[C@@H](C)CN1C(c1ccccn1)c1ccc(F)cc1F (single isomer, unassigned) [Example 683]
470

GET /values?readout=IC50&item= C[C@@H]1CN(c2c(Cl)c(=O)n(C)c3ccc(C#N)nc23)[C@@H](C)CN1C(c1ccccc1)c1ccc(F)cc1 (single isomer, unassigned) [Example 218]
9500

Tell me the measured IC50 of Cn1c(=O)c(C#N)c(N2CCN(C(c3ccc(F)cc3)c3ccc(F)cc3)C(C(N)=O)C2)c2nc(C#N)ccc21 (single isomer, unassigned) [Example 57] , please.
52000

Reported IC50, molecule COc1ccc(C(C)N2C[C@H](C)N(c3cc(=O)n(C)c4ccc(C#N)nc34)C[C@H]2C)nc1 (single isomer, unassigned) [Example 645] : ____
1900

Reported IC50 for CC[C@H]1CN(C(c2ccc(F)cc2)c2csc(C(F)(F)F)n2)[C@H](CC)CN1c1cc(=O)n(C)c2ccc(C#N)nc12 (single isomer, unassigned) [Example 1362] : what is it?
160

Any idea what IC50 was measured for Cc1ccc(C(c2cccc(C)n2)N2C[C@H](C)N(c3cc(=O)n(C)c4ccc(C#N)nc34)C[C@H]2C)cc1 (some centres unmarked) ?
2600

Give the measured IC50 of COc1cc(C(C)N2C[C@H](C)N(c3cc(=O)n(C)c4ccc(C#N)nc34)C[C@H]2C)ccc1F (single isomer, unassigned) [Example 1232] .
33000

(I) CC[C@H]1CN(C(c2ccc(C)cc2)c2ccc(Cl)cc2)[C@H](C)CN1c1cc(=O)n(C)c2ccc(C#N)nc12 (single isomer, unassigned) [Example 1122]
(II) Cc1ccc(C(c2ccc(C#N)cc2)N2C[C@H](C)N(c3cc(=O)n(C)c4ccc(C#N)nc34)C[C@H]2C)nc1 (some centres unmarked) [Example 453]
(III) CC[C@@H]1CN(c2cc(=O)n(C)c3ccc(C#N)nc23)[C@@H](C)CN1C(C)c1ccc(F)c(F)c1 (single isomer, unassigned) [Example 1092]
(IV) Cc1ccc(C(c2ccc(C)cn2)N2C[C@H](C)N(c3cc(=O)n(C)c4ccc(C#N)nc34)C[C@H]2C)cc1 (single isomer, unassigned) [Example 457]
List these items ordered by IC50, big to small. # format: label list in the order the request specifies
III, I, II, IV
(III: 3700 nM, I: 710 nM, II: 310 nM, IV: 140 nM)

* * *

- ASSAY_SYSTEM: human DGKα (Homo sapiens, UniProt P23743)
- Construct: TVMV protease cleavage site (C); Hexa-His (C); made in house; host or cells: Sf9 insect cells (baculovirus, Bac-to-Bac)
- Sequence (P23743 with tags, fused parts or gaps): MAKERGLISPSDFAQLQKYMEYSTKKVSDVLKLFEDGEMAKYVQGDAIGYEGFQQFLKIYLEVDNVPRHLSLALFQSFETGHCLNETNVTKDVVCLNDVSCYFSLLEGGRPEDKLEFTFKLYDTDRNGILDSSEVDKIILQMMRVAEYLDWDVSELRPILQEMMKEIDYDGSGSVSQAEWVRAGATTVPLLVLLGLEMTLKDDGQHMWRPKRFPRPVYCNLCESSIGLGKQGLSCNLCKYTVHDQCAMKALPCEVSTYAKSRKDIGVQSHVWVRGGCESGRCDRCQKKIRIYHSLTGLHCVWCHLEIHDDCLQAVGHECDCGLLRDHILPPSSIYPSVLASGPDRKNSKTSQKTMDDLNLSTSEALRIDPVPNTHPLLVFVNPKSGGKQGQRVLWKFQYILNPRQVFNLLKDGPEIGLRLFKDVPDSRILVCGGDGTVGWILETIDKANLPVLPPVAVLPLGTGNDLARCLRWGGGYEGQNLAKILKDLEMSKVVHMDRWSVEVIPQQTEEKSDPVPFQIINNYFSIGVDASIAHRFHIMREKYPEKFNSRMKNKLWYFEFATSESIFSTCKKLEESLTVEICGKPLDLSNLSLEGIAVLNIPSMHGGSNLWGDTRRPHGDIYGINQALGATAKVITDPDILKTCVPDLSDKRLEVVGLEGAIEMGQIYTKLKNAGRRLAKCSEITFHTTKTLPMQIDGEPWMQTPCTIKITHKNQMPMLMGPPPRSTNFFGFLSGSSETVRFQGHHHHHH
- ASSAY_COMMENT: DGKα LIPGLO assay (extruded liposome substrate), in vitro DGK inhibition
- Assay type: biochemical
- MEASUREMENT_SETUP: DGKα liposome (LIPGLO) assay; read-out: DGKa LIPGLO IC50
pIC50: −log10 of the molar value.
READOUT_TYPE: pIC50

For orientation, consider the following solved cases.
What does the record list as pIC50 for Cc1ccc(C(C)N2CCN(c3c(C#N)c(=O)n(C)c4ccc(C#N)nc34)C[C@H]2C)cc1 (single isomer, unassigned) [Example 952] ?
6.23

Would you mind telling me what pIC50 value was observed for C[C@@H]1CN(c2c(C#N)c(=O)n(C)c3ccc(C#N)nc23)CCN1C(c1ccc(Cl)cc1)c1ccc(Cl)cn1 (stereo partly drawn) [Example 930] ?
6.19

(A) Cc1ccc(C(c2ccc(Cl)cc2)N2CCN(c3c(C#N)c(=O)n(C)c4ccc(C#N)nc34)C[C@H]2C)cc1 (single isomer, unassigned) [Example 944]
(B) CC(c1c(F)cccc1F)N1CCN(c2c(C#N)c(=O)n(C)c3ccc(C#N)nc23)C[C@H]1C (single isomer, unassigned) [Example 950]
(C) C[C@@H]1CN(c2c(C#N)c(=O)n(C)c3ccc(C#N)nc23)[C@@H](C)CN1C(c1ccc(F)cc1)c1ccccn1 (single isomer, unassigned) [Example 843]
Returns the items ordered by pIC50, from maximum to minimum. // respond by listing labels in the order requested
B, C, A

(a) Cc1cccc(CN2CCN(c3c(C#N)c(=O)n(C)c4ccc(C#N)nc34)C[C@H]2C)c1
(b) CC(c1ccc(Cl)cc1)N1CCN(c2c(C#N)c(=O)n(C)c3ccc(C#N)nc23)C[C@H]1C (single isomer, unassigned) [Example 979]
Pick one: a or b . Which one has the lower reported pIC50? # reply format: chosen label
b
(b: 6.04, a: 6.46)

* * *

- ASSAY_SYSTEM: human DGKζ (Homo sapiens)
- Construct: TVMV protease cleavage site (C); Hexa-His (C); made in house; host or cells: Sf9 insect cells (baculovirus, Bac-to-Bac)
- ASSAY_COMMENT: DGKζ LIPGLO assay (extruded liposome substrate), in vitro DGK inhibition
- Assay type: biochemical
- MEASUREMENT_SETUP: liposome (LIPGLO) assay; read-out: DGKz LIPGLO IC50
pIC50: −log10 of the molar value.
READOUT_TYPE: pIC50

Dear colleague, I am looking for the recorded pIC50 of the following compound: `CC(C)c1nc(CN2C[C@H](C)N(c3cc(=O)n(C)c4ccc(C#N)nc34)C[C@H]2C)no1`
5.11

Fill in the blank: the reported pIC50 of CC[C@@H]1CN(c2cc(=O)n(C)c3ccc(C#N)nc23)[C@@H](C)CN1C(C)c1c(F)cc(F)cc1F (single isomer, unassigned) [Example 1089] is ____.
6.92

Give the measured pIC50 of C[C@@H]1CN(c2cc(=O)n(C)c3ccc(C#N)nc23)[C@@H](C)CN1C(CO)c1ccc(F)cc1 (single isomer, unassigned) [Example 558] .
4.00

Quick one: pIC50 for C[C@@H]1CN(c2cc(=O)n(C)c3ccc(C#N)nc23)[C@@H](C)CN1C(c1ccc(F)cc1)c1cnccn1 (single isomer, unassigned) [Example 675] ?
4.64

(P) C[C@@H]1CN(C(c2ccc(F)cc2)c2ccc(F)cc2)[C@@H](C)CN1c1c(C#N)c(=O)n(C)c2ccc(Br)nc12
(Q) CC[C@@H]1CN(c2cc(=O)n(C)c3ccc(C#N)nc23)[C@@H](C)CN1C(C)c1ccc(C#N)cc1 (single isomer, unassigned) [Example 1346]
Response body: label of entry with the larger pIC50; valid values P , Q . Choose, then provide that item's label.
Q
